Target: T1, GFP-9S library array, motif 4 ND N98D (synthetic construct, N98D)
T1 chain: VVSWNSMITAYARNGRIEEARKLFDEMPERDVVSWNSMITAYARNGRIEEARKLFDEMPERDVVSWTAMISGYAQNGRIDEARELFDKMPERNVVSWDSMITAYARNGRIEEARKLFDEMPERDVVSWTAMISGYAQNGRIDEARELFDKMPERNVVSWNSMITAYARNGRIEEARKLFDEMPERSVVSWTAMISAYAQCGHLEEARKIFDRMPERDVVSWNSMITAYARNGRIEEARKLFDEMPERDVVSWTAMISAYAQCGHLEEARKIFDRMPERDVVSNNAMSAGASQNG
Assay: high-throughput RNA pulldown from lysate on Ni-NTA beads; HRP: 50 mM Tris pH 8, 150 mM NaCl, 1 mM beta-mercaptoethanol, 50 ug/ml BSA, 3 ug/ml yeast RNA, 0.5% heparin; ITC and FP: Tris pH 8, 200 mM KCl, 5% glycerol; MST: 50 mM Tris pH 8, 200 mM NaCl, 1 mM DTT, BSA, heparin, 0.05% Tween 20
Conditions: tags: N-terminal His-eGFP; label: 5' Cy5
Experimental endpoint: pKd
The read-out pKd is expressed as -log10 of concentration in moles per litre.

Dear colleague, I am looking for the recorded pKd of the following binder: AUUACACGUGA (ssRNA) [Cy5-rpoA]
6.40

Dear colleague, I am looking for the recorded pKd of the following binder: AUUAGACGUGA (ssRNA) [Cy5-rpoA-G]
7.26
